Test system: OVCAR-5
protocol-notes: Growth inhibition of human OVCAR-5 cells assessed as cell growth at 0.01 uM incubated for 48 hrs by sulforhodamine B assay relative to control
Format: functional
applied-conditions: read-out: Activity
Quick list: growth at 0.01 µM per entry.
Note: unit % is implicit; provide only the numeric part.

molecular-string: CCc1cccc(C)c1NC(=O)c1sc2nc3c(cc2c1N)C(=O)CCC3
system: OVCAR-5
assay-value: 87
//
molecular-string: COc1cccc(NC(=O)c2sc3nc4c(cc3c2N)CN(Cc2ccccc2)CC4)c1
system: OVCAR-5
assay-value: 91
//
molecular-string: Cc1cccc(NC(=O)c2sc3nc4c(cc3c2N)C(=O)CCC4)c1
system: OVCAR-5
assay-value: 96
//
molecular-string: Cc1cc(C)c(NC(=O)c2sc3nc4c(cc3c2N)CN(Cc2ccccc2)CC4)c(C)c1
system: OVCAR-5
assay-value: 90
//
molecular-string: Nc1c(C(=O)Nc2ccccc2)sc2nc3c(cc12)CN(Cc1ccccc1)CC3
system: OVCAR-5
assay-value: 99
//
molecular-string: Cc1ccc(NC(=O)c2sc3nc4c(cc3c2N)C(=O)CCC4)cc1C
system: OVCAR-5
assay-value: 89

Tell me growth at 0.01 µM reported for CCc1ccccc1NC(=O)c1sc2nc3c(cc2c1N)C(=O)CCC3
84
